Form field: pIC50 (one value per entry).
# assay target: JAK1 (recombinant purified GST-tagged catalytic domain) (Homo sapiens (Human))
# Sequence (P23458 875-1153): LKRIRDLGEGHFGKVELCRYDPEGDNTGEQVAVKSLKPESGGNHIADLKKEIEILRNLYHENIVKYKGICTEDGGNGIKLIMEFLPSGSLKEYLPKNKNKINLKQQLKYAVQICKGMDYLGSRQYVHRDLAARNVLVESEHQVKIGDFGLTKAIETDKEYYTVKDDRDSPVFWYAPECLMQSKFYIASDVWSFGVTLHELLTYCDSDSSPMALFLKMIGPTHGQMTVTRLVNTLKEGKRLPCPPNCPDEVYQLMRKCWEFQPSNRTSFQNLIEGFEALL
# experimental details: Jak Biochemical HTRF Assay (JAK1)
# condition details: [ATP] 31.8 μM
Bear in mind: pIC50 is minus log10 of a mol/L concentration; give just that figure.

Observe how each entry below is paired with its result.
{"compound": "Cc1cc(Nc2nn([C@]3(CC#N)CC[C@@H](C(=O)OC(C)(C)C)OC3)c3cc[nH]c(=O)c23)ccc1C(=O)N1CCSC1C (single isomer, unassigned) [Example 5-156]", "pIC50": 9.77}
{"compound": "CC(C)(C)OC(=O)N1CCC(CC#N)(n2nc(Nc3ccc4c(c3)CN(CC(F)(F)F)C4=O)c3c(=O)[nH]ccc32)CC1", "pIC50": 9.55}
{"compound": "Cc1cc(Nc2nn([C@]3(CC#N)CC[C@@H](C(=O)OC(C)(C)C)OC3)c3cc[nH]c(=O)c23)ccc1C(=O)N1CCSCC1", "pIC50": 9.89}

Looking up CC(C)S(=O)(=O)c1ccc(Nc2nn([C@@]3(CC#N)CCCC[C@H]3F)c3cc[nH]c(=O)c23)cc1 , I found its pIC50 recorded as 10.40

Looking up CN(C)S(=O)(=O)c1ccc(Nc2nn(C3(CC#N)CCN(C(=O)O[C@H]4CCOC4)CC3)c3cc[nH]c(=O)c23)cc1 , I found its pIC50 recorded as 9.80

Looking up COC(=O)N1CCC(CC#N)(n2nc(Nc3ccc4c(c3)CN(C(C)(C)C)S4(=O)=O)c3c(=O)[nH]ccc32)CC1 , I found its pIC50 recorded as 10.10

Looking up CC(C)(C)OC(=O)N1CCC(CC#N)(n2nc(Nc3ccc([C@]4(C(F)(F)F)CCCN4)cc3)c3c(=O)[nH]ccc32)CC1 (single isomer, unassigned) , I found its pIC50 recorded as 9.35

Looking up Cc1cc(Nc2nn(C3(CC#N)CCN(c4ccc(C#N)cn4)CC3)c3cc[nH]c(=O)c23)ccc1C(=O)N1CCSCC1 , I found its pIC50 recorded as 9.82

Looking up CC(C)(C)N1Cc2cc(Nc3nn(C4(CC#N)CCCC4)c4cc[nH]c(=O)c34)ccc2S1(=O)=O , I found its pIC50 recorded as 10.40

Looking up CC(C)OC(=O)C(C)(C)C(O)(c1ccc(Nc2nn([C@]3(CC#N)CC[C@@H](C(=O)OC(C)(C)C)OC3)c3cc[nH]c(=O)c23)cc1)C(F)(F)F (single isomer, unassigned) [Example 5-162] , I found its pIC50 recorded as 8.56

Looking up CC(C)(C)OC(=O)[C@@H]1CC[C@@](CC#N)(n2nc(Nc3ccc(C(C)(O)C(F)(F)F)cc3)c3c(=O)[nH]ccc32)CO1 (single isomer, unassigned) [Example 5-171] , I found its pIC50 recorded as 10.15

Looking up CC(C)(C)N1Cc2cc(Nc3nn([C@]4(CC#N)CCOC4)c4cc[nH]c(=O)c34)ccc2S1(=O)=O (single isomer, unassigned) , I found its pIC50 recorded as 9.41

Looking up COC(C)(c1ccc(Nc2nn([C@]3(CC#N)CC[C@@H](C(=O)OC(C)(C)C)OC3)c3cc[nH]c(=O)c23)cc1)C(F)(F)F (single isomer, unassigned) , I found its pIC50 recorded as 9.12

Looking up CC(C)(C)OC(=O)N1CC(CC#N)(n2nc(Nc3ccnc(C(F)(F)F)c3)c3c(=O)[nH]ccc32)C1 , I found its pIC50 recorded as 7.48

Looking up N#CC[C@@]1(n2nc(Nc3ccc(S(=O)(=O)C4CCCCC4)cc3)c3c(=O)[nH]ccc32)CCCOC1 , I found its pIC50 recorded as 9.38

Looking up CC(C)S(=N)(=O)c1ccc(Nc2nn([C@]3(CC#N)CC[C@@H](C(=O)OC(C)(C)C)OC3)c3cc[nH]c(=O)c23)cc1 (single isomer, unassigned) [Example 5-231] , I found its pIC50 recorded as 9.92

Looking up Cc1cc(Nc2nn(C3(CC#N)CCN(C(=O)OC(C)(C)C)CC3)c3cc[nH]c(=O)c23)ccc1C(=O)N1CCSCC1 , I found its pIC50 recorded as 9.48

Looking up CN(C)S(=O)(=O)c1ccc(Nc2nn(C3(CC#N)CCC(=O)CC3)c3cc[nH]c(=O)c23)cc1 , I found its pIC50 recorded as 8.86

Looking up CC(C)(C)OC(=O)[C@@H]1CC[C@@](CC#N)(n2nc(Nc3ccc(C(N)C(F)(F)F)cc3)c3c(=O)[nH]ccc32)CO1 (some centres unmarked) [Example 5-104] , I found its pIC50 recorded as 10.15

Looking up CC(C)(C)OC(=O)N1CC[C@](CC#N)(n2nc(Nc3ccc([C@@H](O)C(F)(F)F)cc3)c3c(=O)[nH]ccc32)[C@H](F)C1 (single isomer, unassigned) , I found its pIC50 recorded as 9.82

---

Form field: pIC50 (one value per entry).
# assay target: JAK2 (recombinant purified GST-tagged catalytic domain) (Homo sapiens (Human), UniProt O60674)
# Sequence (O60674 849-1124): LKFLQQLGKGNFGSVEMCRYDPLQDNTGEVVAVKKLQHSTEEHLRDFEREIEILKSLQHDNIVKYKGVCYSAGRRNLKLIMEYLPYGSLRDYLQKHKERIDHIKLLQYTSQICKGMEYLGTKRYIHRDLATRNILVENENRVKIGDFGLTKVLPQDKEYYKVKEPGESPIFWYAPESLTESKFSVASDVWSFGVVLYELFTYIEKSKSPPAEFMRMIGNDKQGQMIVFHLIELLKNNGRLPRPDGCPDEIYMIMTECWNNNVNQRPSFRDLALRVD
# experimental details: Jak Biochemical HTRF Assay (JAK2)
# condition details: [ATP] 8.5 μM
Bear in mind: pIC50 is minus log10 of a mol/L concentration; give just that figure.

{"molecule": "COC(=O)N1CCC(CC#N)(n2nc(Nc3ccc4c(c3)CN(CC(C)C)S4(=O)=O)c3c(=O)[nH]ccc32)CC1 [Example 5-73]", "pIC50": 9.46}
{"molecule": "CN(C)S(=O)(=O)c1ccc(Nc2nn(C3(CC#N)CCN(C(=O)c4ccccc4Cl)CC3)c3cc[nH]c(=O)c23)cc1 [Example 9-15]", "pIC50": 8.08}
{"molecule": "CC(C)(C)OC(=O)[C@@H]1CC[C@@](CC#N)(n2nc(Nc3ccc(C(C)(O)C(F)(F)F)cc3)c3c(=O)[nH]ccc32)CO1 (single isomer, unassigned) [Example 5-170]", "pIC50": 9.32}
{"molecule": "CN(C(C)(C)C)S(=O)(=O)c1ccc(Nc2nn([C@]3(CC#N)CC[C@@H](C(=O)OC(C)(C)C)OC3)c3cc[nH]c(=O)c23)cc1 [Example 5-90]", "pIC50": 9.39}
{"molecule": "CN(C)S(=O)(=O)c1ccc(Nc2nn(C3(CC#N)CCN(Cc4c(F)ccc(F)c4F)CC3)c3cc[nH]c(=O)c23)cc1 [Example 8-11]", "pIC50": 9.55}

Looking up CC(C)(C)OC(=O)[C@@H]1CC[C@@](CC#N)(n2nc(Nc3ccc4c(c3)CN(CC(F)(F)F)C4=O)c3c(=O)[nH]ccc32)CO1 [Example 5-95] , I found its pIC50 recorded as 9.70

Looking up CC(C)NC(c1ccc(Nc2nn([C@]3(CC#N)CC[C@@H](C(=O)OC(C)(C)C)OC3)c3cc[nH]c(=O)c23)cc1)C(F)(F)F (single isomer, unassigned) [Example 5-209] , I found its pIC50 recorded as 9.46

---

# assay target: JAK2 (recombinant purified GST-tagged catalytic domain) (Homo sapiens (Human))
# experimental details: Jak Biochemical HTRF Assay (JAK2)
# condition details: [ATP] 8.5 μM
Form field: IC50 (one value per entry).
All answers are understood in nM, so give the number only.

Observe how each entry below is paired with its result.
{"compound": "CC(C)(C)N1Cc2cc(Nc3nn([C@]4(CC#N)CCOC4)c4cc[nH]c(=O)c34)ccc2S1(=O)=O (single isomer, unassigned)", "IC50 / nM": 9.56}
{"compound": "CC(C)(C)S(=O)(=O)c1ccc(Nc2nn([C@]3(CC#N)CCCOC3)c3cc[nH]c(=O)c23)cc1", "IC50 / nM": 0.47}
{"compound": "CN(C)S(=O)(=O)c1ccc(Nc2nn(C3(CC#N)CCN(Cc4ccc(C(F)(F)F)cc4)CC3)c3cc[nH]c(=O)c23)cc1", "IC50 / nM": 8.62}
{"compound": "N#CC[C@]1(n2nc(Nc3ccc([C@@]4(C(F)(F)F)CCCCN4)cc3)c3c(=O)[nH]ccc32)CCOC[C@H]1F (single isomer, unassigned)", "IC50 / nM": 0.79}
{"compound": "CN1Cc2cc(Nc3nn([C@]4(CC#N)CC[C@@H](N5CC(F)C5)CC4)c4cc[nH]c(=O)c34)ccc2S1(=O)=O", "IC50 / nM": 0.09}

Looking up CC(C)(C)OC(=O)N1CCC(CC#N)(n2nc(Nc3ccc4c(c3)CN(CC3CC3)S4(=O)=O)c3c(=O)[nH]ccc32)CC1 , I found its IC50 recorded as 0.33

Looking up COCC(C)OC(=O)N1CCC(CC#N)(n2nc(Nc3ccc(S(=O)(=O)N(C)C)cc3)c3c(=O)[nH]ccc32)CC1 (stereo not shown) , I found its IC50 recorded as 0.61

Looking up Cc1cc(Nc2nn([C@]3(CC#N)CC[C@@H](C(=O)OC(C)(C)C)OC3)c3cc[nH]c(=O)c23)ccc1C(=O)N1CCOC(C)C1 (single isomer, unassigned) [Example 20-11] , I found its IC50 recorded as 0.35

Looking up CC(C)(C)OC(=O)N1CCC(CC#N)(n2nc(Nc3ccc(F)cc3)c3c(=O)[nH]ccc32)CC1 , I found its IC50 recorded as 2.26

Looking up C[C@H]1CN(c2ccc3cc(Nc4nn([C@]5(CC#N)CC[C@@H](C(=O)OC(C)(C)C)OC5)c5cc[nH]c(=O)c45)ccc3n2)CCO1 , I found its IC50 recorded as 1.06
